# System: MS2 coat protein
# protocol_summary: apparent Kd, MS2 coat protein; higher = weaker binding; RNA-MaP array
# conditions_used: ligand present: flavin mononucleotide; designed as: OFF switch for flavin mononucleotide
measured_attribute: apparent Kd (nM)
Express your answer in nM, writing the number without its unit.

What value of measured apparent Kd is listed for AUUCCAAUAGGAUAUACAUGAGGAUCACCCAUGUGAUGAGCCCGUAAGACAGACGUCAGUAGAAGGAUUAGGAA ?
31.7

I'd like to know its apparent Kd. The sequence in question is AUCAGUCUAGAAGGAUAUCAGCCCGAAGCCGAGUGAGAAGGUCUAGACAUGAGGAUCACCCAUGUCACAGCAACUAUCAAGAAC
19.1

What value of apparent Kd has been recorded for this entry: CAAAUAUAGUCAGGAUAUGUUCGAAAGGGUGCACAUGAGGAUCACCCAUGUCAUAAGACACUAGCACAGAAGGGACCCGAGAGA
141

# lookup: apparent Kd of ACAUGAGGAUCACCCAUGUACCAAGAACAUUGAUGCCUCCGAGAGGAUAUUUGCGGUAUAACACUAAAGAAGGCUCUACAAGUA
7.31

Recorded apparent Kd of AUCACAUGAGGAUCACCCAUGUUAGGUAGAUGCAGUAAAGUCUAGGAUAUAAGCUUGUGAAGUAGUUAGAAGGAGACACAUGAG , please.
18.3

Quick one: apparent Kd of GAUAAGGAAGGAUAUACAAAGGAACAAAUACACAUUCUAAAACAUGAGGAUCACCCAUGUAGAAGGACCAACAA ?
6.83

Name the reported apparent Kd value associated with the sequence AUGUUCGAACAUGAGGAUCACCCAUGUGAACCUCAUAAACGUAGAAGGCGACCGAGUUUAUGGGUCGAGGAUAUACCUCGAGAA
554

* * *

# System: MS2 coat protein
# protocol_summary: apparent Kd, MS2 coat protein; higher = weaker binding; RNA-MaP array; FMN 200 µM where present
# conditions_used: designed as: ON switch for flavin mononucleotide; no ligand
Label 1 for high-side apparent Kd (at or above 20 nM) and 0 for low-side apparent Kd (below it).

Identify whether the reported apparent Kd of the following sequence is 20 nM or greater: UUGGACGUCGUAGGAUAUGUAGCAUAUUCCUACAUGAGGAUCACCCAUGUUGACAUGGAAGAAGGACAGAAGGACGAUGUCCAU
0

hey, is apparent Kd for this one >= 20 nM? AUUAACUACAUAGGAUAUUGAUACAUGAGGAUCACCCAUGUCACGUAUUUAUAUUAAACAUUUGACAAGAAGGAUGUGGUUACA
0

# bool: apparent Kd of GAAUUCGCAUGAGGAUAUGCACUCAUUUCAUGUGCAGAAGGUAUUUCAUUAGACAUGAGGAUCACCCAUGUAUUGGUCAUUAAC >= 20 nM
0

Given the entry AGUGUCAUCGAGAAGGCCUCAACAUGAGGAUCACCCAUGUUGCAAAAUGGGAGGAUAUCGCAAAAACAGCUACGUUUCGUAGCA , answer whether its apparent Kd meets or surpasses 20 nM.
1

Reported apparent Kd at or above 20 nM? GGACGUCACAUUAACAUGAGGAUCACCCAUGUCUCUAGACAUGAGGAUAUGGAUCCUAAUUGGAUCCAGAAGGCAUGGACGUCC
1

Record UACACUACUGAGAAGGGAUACAUAUAAUUUUAGUCAGGAUAUCGAUACAGUGCAGCAUGAGGACAUGAGGAUCACCCAUGUAUU ; criterion: apparent Kd no lower than 20 nM. Met?
1

Reported apparent Kd reaches at least 20 nM for UUGGACGUCGUAGGCUAUGUAGGAUAUUCCUACAUGAGGAUCACCCAUGUUGACAUGGAAGAAGGACAGAAGGACGAUGUCCAU ?
1
